Just for reference, ChEMBL document CHEMBL4828746 is where these values come from.

Reported values of Activity for individual entries
- target: Core antigen (Hepatitis B virus) (UniProt Q03732)
- Sequence (Q03732 as listed by the source): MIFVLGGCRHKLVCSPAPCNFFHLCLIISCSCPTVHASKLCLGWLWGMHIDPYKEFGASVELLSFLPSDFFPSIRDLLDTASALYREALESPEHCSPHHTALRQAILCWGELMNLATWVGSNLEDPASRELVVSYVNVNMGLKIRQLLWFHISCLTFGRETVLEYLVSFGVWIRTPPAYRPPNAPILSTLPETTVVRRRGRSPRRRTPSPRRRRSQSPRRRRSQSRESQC
- test: Inhibition of capsid protein in HBV infected in human HepDES19 cells assessed as inhibition of viral replication by measuring minus polarity DNA level at 20 uM incubated for 3 days by strand preferential qPCR analysis relative to control
- Assay type: cell-based
- Parameters: scale not given: the % may be the effect or the level left
- test_context: time 3.0 day
Respond with the bare value in %.

See these solved cases before continuing.
CCOC(=O)C1=C(CN2CCC3(CCN(C(=O)OC(C)(C)C)CC3)C2)NC(c2nccs2)=NC1c1ccc(F)cc1Br (stereo not drawn) ... 87
CCOC(=O)C1=C(CN2CCC3(CCNC3)C2=O)NC(c2nccs2)=NC1c1ccc(F)cc1Br (stereo not drawn) ... 81.4
CCOC(=O)C1=C(CN2CCC3(CC2)CC(=O)NC3=O)NC(c2nccs2)=NC1c1ccc(F)cc1Br (stereo not drawn) ... 34.8
CCOC(=O)C1=C(CN2CCC3(CC2)OCCO3)NC(c2nccs2)=NC1c1ccc(F)cc1Br (stereo not drawn) ... 3.4
CCOC(=O)C1=C(CN2CCC3(CCNCC3)C2)NC(c2nccs2)=NC1c1ccc(F)cc1Br (stereo not drawn) ... 86.4

Input: For the compound CCOC(=O)C1=C(CN2CCC3(CNC(=O)C3)C2)NC(c2nccs2)=NC1c1ccc(F)cc1Br (stereo not drawn) , what Activity is on record?
Output: 2.5

Input: CCOC(=O)C1=C(CN2CCC3(CNC3)C2)NC(c2nccs2)=NC1c1ccc(F)cc1Br (stereo not drawn) ?
Output: 88.8

Input: CCOC(=O)C1=C(CN2CCC3(CCN(C(=O)OC(C)(C)C)C3)C2)NC(c2nccs2)=NC1c1ccc(F)cc1Br (stereo not drawn) ?
Output: 28.8

###

- target: Core antigen (Hepatitis B virus)
- test: Inhibition of capsid protein in HBV infected in human HepDES19 cells assessed as inhibition of viral replication by measuring minus polarity DNA level at 20 uM incubated for 3 days by strand preferential qPCR analysis relative to control
- Type: cell-based
- Design: scale not given: the % may be the effect or the level left
- test_context: time 3.0 day
Classify: Met when Activity is strictly less than 70%; Not met when Activity is not.

Please review the entries below; each comes with its answer.
CCOC(=O)C1=C(CN2CC3(C2)CN(C(=O)OC(C)(C)C)C3)NC(c2nccs2)=NC1c1ccc(F)cc1Br (configuration not stated) ... Not met
CCOC(=O)C1=C(CN2CCC3(CCNC3=O)CC2)NC(c2nccs2)=NC1c1ccc(F)cc1Br (configuration not stated) ... Met

Input: Take the compound CCOC(=O)C1=C(CN2CCC3(CC(=O)N(Cc4ccccc4)C3=O)C2)NC(c2nccs2)=NC1c1ccc(F)cc1Br (configuration not stated) and say whether its Activity is less than 70%.
Output: Met

Input: CCOC(=O)C1=C(CN2CC3(CCN(C(=O)OC(C)(C)C)C3)CC2=O)NC(c2nccs2)=NC1c1ccc(F)cc1Br (configuration not stated) ?
Output: Met

Input: CCOC(=O)C1=C(CN2CCC3(CC2)CNC(=O)C3)NC(c2nccs2)=NC1c1ccc(F)cc1Br (configuration not stated) ?
Output: Met

Input: CCOC(=O)C1=C(CN2CC3(CNC3)C2)NC(c2nccs2)=NC1c1ccc(F)cc1Br (configuration not stated) ?
Output: Not met
